Target: UniProt P95029
pKd: −log10 of the molar value.
assayReadout: pKd

INPUT: Which pKd reading was recorded for the molecule NC(=O)c1cnccn1 [PZA, Pyrazinamide] ?
OUTPUT: 3.91 to 4.15
